Let's look at some substances and their measured Yap1 mRNA, % UTC.
system: Yap1 mRNA; experiment: Dose-dependent inhibition of human Yap1 in A-431 cells (Example 8, 10,000 cells per well, RTS4814); format: cell-based; conditions: 500.0 nM; A-431 cells, 10,000 cells per well, free uptake, approximately 48 hours, RTS4814
Strand notation (5' to 3'): a small letter for the sugar, then the base; units joined by * are phosphorothioate-linked, units joined directly phosphodiester-linked; [ ] holds rarer units or linkages, { } end groups; capitals alone tell only the bases. k = constrained ethyl (cEt); [5mC] = 5-methylcytosine; d = 2'-deoxy (DNA)
Write the number in % UTC without appending the unit.

Illustrative cases are given below, each with its answer.
substance="1074577 (DNA kT*kA*kT*dT*dT*d[5mC]*dT*dG*dT*d[5mC]*dA*dT*dG*k[5mC]*kA*k[5mC]) [compound 1074577]" system="Yap1 mRNA" measured_attribute="Yap1 mRNA, % UTC" result=4
substance="1075048 (antisense kG*kT*kA*dA*dA*dA*dT*dT*dA*dG*dA*d[5mC]*dT*k[5mC]*k[5mC]*k[5mC]) [compound 1075048]" system="Yap1 mRNA" measured_attribute="Yap1 mRNA, % UTC" result=13

Write down the reported Yap1 mRNA, % UTC of 1074578 (DNA kG*k[5mC]*kT*dT*dA*dT*dT*dT*d[5mC]*dT*dG*dT*d[5mC]*kA*kT*kG) [compound 1074578] , test system: Yap1 mRNA.
18

----------
test system: Yap1 mRNA; experiment: Dose-dependent inhibition of human Yap1 in A-431 cells (Example 8, 10,000 cells per well, RTS4814); format: cell-based; details: 2000.00 nM; A-431 cells, 10,000 cells per well, free uptake, approximately 48 hours, RTS4814
Strand notation (5' to 3'): a small letter for the sugar, then the base; units joined by * are phosphorothioate-linked, units joined directly phosphodiester-linked; [ ] holds rarer units or linkages, { } end groups; capitals alone tell only the bases. k = constrained ethyl (cEt); [5mC] = 5-methylcytosine; d = 2'-deoxy (DNA)
MEASURED ATTRIBUTE: Yap1 mRNA, % UTC (% UTC)
Use % UTC as the unit, but write only the number.

Example entries and their recorded answers appear below.
substance="1075088 (kA*kT*kT*dT*dA*dT*dA*dG*dT*d[5mC]*dA*dG*dG*kT*kT*k[5mC]; antisense) [compound 1075088]" system="Yap1 mRNA" measured_attribute="Yap1 mRNA, % UTC" result=2
substance="1076017 (k[5mC]*kT*kA*dA*dT*dA*dG*dG*dA*dT*dG*dG*dA*kT*kT*k[5mC]; antisense) [compound 1076017]" system="Yap1 mRNA" measured_attribute="Yap1 mRNA, % UTC" result=5

API: the following record is the query input.
// query Yap1 mRNA, % UTC value for entry 1075749 (kA*kA*kT*dT*dA*dT*dG*dA*dA*dT*dG*dA*dT*kG*kG*kG; antisense) [compound 1075749]
4

----------
assay: Tolerability in CD-1 mice, body and organ weights (Example 18); assay type: in vivo; conditions: male CD-1 mice, 50 mg/kg s.c. twice a week (total of 9 treatments), end of study (day 34)
Strand notation (5' to 3'): a small letter for the sugar, then the base; units joined by * are phosphorothioate-linked, units joined directly phosphodiester-linked; [ ] holds rarer units or linkages, { } end groups; capitals alone tell only the bases. k = constrained ethyl (cEt); [5mC] = 5-methylcytosine; d = 2'-deoxy (DNA)
MEASURED ATTRIBUTE: body weight (g)
Dear colleague, please return just the value in g, with no unit written.

substance="1076453 (GTAATATTGCAATCTG; 3-10-3 cEt gapmer, further chemistry not given here) [compound 1076453]" units_of_measure=g result=38
substance="1074755 (k[5mC]*kA*k[5mC]*dT*dT*dT*dT*dA*d[5mC]*dA*dT*dT*dA*kG*kG*kA; antisense) [compound 1074755]" units_of_measure=g result=39
substance="958499 (ATTAGAGTATGTGGCA; 3-10-3 cEt gapmer, further chemistry not given here) [compound 958499]" units_of_measure=g result=39

Please look at the following substance next.
Given the entry 1076481 (k[5mC]*kT*kA*dA*dG*dT*dA*dA*dG*dG*dT*dT*dT*k[5mC]*k[5mC]*k[5mC]) [compound 1076481] , report its measured body weight.
39

----------
tested on: Yap1 mRNA; test: Antisense inhibition of human Yap1 in A-431 cells by cEt gapmers, single dose (Example 2, RTS4814); type: cell-based; settings: Table 20; Yap1 mRNA, percent of untreated control; 3-10-3 cEt gapmers targeting SEQ ID NO.: 1 and 2
Strand notation (5' to 3'): a small letter for the sugar, then the base; units joined by * are phosphorothioate-linked, units joined directly phosphodiester-linked; [ ] holds rarer units or linkages, { } end groups; capitals alone tell only the bases. k = constrained ethyl (cEt); [5mC] = 5-methylcytosine; d = 2'-deoxy (DNA)
Returns one of T or F; T when YAP1 (% UTC) is >= 50 % UTC.

Sample answers from the record:
substance="1075878 (kG*kA*kT*dT*dA*dT*d[5mC]*dA*dA*dG*dT*dA*dG*kT*kT*kT; antisense) [Compound 1075878]" discrete_label=F
substance="1075366 (kA*k[5mC]*kA*d[5mC]*dG*dA*dA*dA*dA*dT*dA*dG*dT*kT*k[5mC]*kT; antisense) [Compound 1075366]" discrete_label=F

Reported YAP1 (% UTC) reaches at least 50 % UTC for 1074598 (antisense k[5mC]*kT*kT*dA*dT*dA*dG*dT*dA*dT*dT*d[5mC]*dT*kA*kT*k[5mC]) [Compound 1074598] ?
F

Is YAP1 (% UTC) for 1074854 (antisense kA*k[5mC]*kA*dA*dT*dT*dG*dT*dT*dA*dT*dG*dA*kT*kA*kG) [Compound 1074854] at or above 50 % UTC?
F

State whether the measured YAP1 (% UTC) reaches 50 % UTC, counting equality as reaching it, for 1074470 (k[5mC]*k[5mC]*k[5mC]*d[5mC]*d[5mC]*d[5mC]*dA*d[5mC]*d[5mC]*dG*dA*d[5mC]*d[5mC]*k[5mC]*kT*kG; antisense) [Compound 1074470]
T

Decide: YAP1 (% UTC) of 1074118 (antisense k[5mC]*kA*k[5mC]*dT*d[5mC]*dG*dG*dA*d[5mC]*d[5mC]*dT*dG*d[5mC]*kG*kG*k[5mC]) [Compound 1074118] >= 50 % UTC?
T

Does 1075334 (kT*kT*kA*dA*dT*dA*dA*dT*d[5mC]*dT*dA*d[5mC]*d[5mC]*kA*kG*kT; antisense) [Compound 1075334] have a reported YAP1 (% UTC) of at least 50 % UTC?
T

Hello, I need to know if 1075302 (k[5mC]*k[5mC]*kT*dT*dA*dA*dA*dG*d[5mC]*dT*dT*d[5mC]*d[5mC]*kA*k[5mC]*k[5mC]; antisense) [Compound 1075302] has measured YAP1 (% UTC) not below 50 % UTC. Thanks!
T

Tell me whether YAP1 (% UTC) is at least 50 % UTC here: 1076038 (kA*kG*kG*d[5mC]*dA*dA*dG*dA*dA*dT*dT*dG*dG*kG*kT*kA; antisense) [Compound 1076038]
F

Test whether the substance 1076422 (kG*kA*kA*dT*dT*dA*dT*dG*dA*d[5mC]*d[5mC]*dT*d[5mC]*k[5mC]*kA*kT; antisense) [Compound 1076422] records YAP1 (% UTC) of 50 % UTC or higher.
F

Decide: YAP1 (% UTC) of 1074406 (antisense kA*kA*kA*dG*dT*dA*dT*d[5mC]*dT*dT*dG*d[5mC]*dT*kG*kG*kA) [Compound 1074406] >= 50 % UTC?
F

----------
system: Yap1 mRNA; assay: Dose-dependent inhibition of human Yap1 in A-431 cells (Example 8, 10,000 cells per well, RTS4814); type: cell-based; details: 125.0 nM; A-431 cells, 10,000 cells per well, free uptake, approximately 48 hours, RTS4814
Strand notation (5' to 3'): a small letter for the sugar, then the base; units joined by * are phosphorothioate-linked, units joined directly phosphodiester-linked; [ ] holds rarer units or linkages, { } end groups; capitals alone tell only the bases. k = constrained ethyl (cEt); [5mC] = 5-methylcytosine; d = 2'-deoxy (DNA)
MEASURED ATTRIBUTE: Yap1 mRNA, % UTC (% UTC)
Please give a number only; it is taken to be in % UTC.

// Yap1 mRNA, % UTC lookup, key: 1074351 (antisense kA*kT*kG*d[5mC]*dT*dT*dA*dG*dT*d[5mC]*d[5mC]*dA*d[5mC]*kT*kG*kT) [compound 1074351]
33

Entry 1075155 (kT*k[5mC]*kA*dT*dT*dA*dT*dA*dA*dT*dG*dG*dG*kA*kG*kG; antisense) [compound 1075155] has what Yap1 mRNA, % UTC?
15

May I ask what Yap1 mRNA, % UTC has been recorded for 1075744 (kT*kT*k[5mC]*dG*dG*dG*dT*dT*dA*dG*d[5mC]*dA*dG*kA*k[5mC]*kT; antisense) [compound 1075744] ?
22

Give the measured Yap1 mRNA, % UTC of 1075138 (kA*kA*kT*dA*dA*dT*dA*dG*dA*dT*dA*d[5mC]*dT*kG*k[5mC]*k[5mC]; antisense) [compound 1075138] .
27

Suppose we examine the substance 1074608 (DNA kG*kT*kT*dA*d[5mC]*dA*dT*d[5mC]*dA*dT*d[5mC]*dT*d[5mC]*kT*kT*k[5mC]) [compound 1074608] ; what Yap1 mRNA, % UTC value has been reported?
20

For the substance 1076366 (antisense kA*kT*kT*dT*dA*d[5mC]*dA*dT*dG*dA*dG*dA*dG*kG*kA*kG) [compound 1076366] , what Yap1 mRNA, % UTC is on record?
25
